The origin of these recorded values is the NIST ThermoML archive (doi:10.1021/je050170x).

# TEST: refractive index (Na D-line) (dimensionless)
# EXPERIMENTAL_CONDITIONS: 288.15 K; 101.33 kPa; Liquid; Standard Abbe refractometry
Field: refractive index. Provide a value for each of the compounds that follow.
Numbers only.

Here is how some compounds turned out for refractive index.
{"COMPOUND": "CC(=O)OCCC(C)C [3-methylbutyl ethanoate]", "refractive index": 1.40288}
{"COMPOUND": "CCOC(=O)c1ccccc1O [ethyl 2-hydroxybenzoate]", "refractive index": 1.52481}
{"COMPOUND": "CCOC(=O)c1ccccc1 [ethyl benzoate]", "refractive index": 1.5076}

I'm hoping you can list refractive index for every compound here, please.
1. COC(=O)c1ccccc1 [methyl benzoate]
2. CCCC(=O)OCCC(C)C [3-methylbutyl butanoate]
3. CCCCCC(=O)OCC [ethyl hexanoate]

Reply:
1: 1.51915; 2: 1.41259; 3: 1.4095
